- Tested System: Human immunodeficiency virus type 1 reverse transcriptase (Human immunodeficiency virus 1, UniProt Q72547)
This listing pairs compounds with measured pIC50.
Expect pIC50 as a plain number equal to -log10 of the molar concentration.

Some compounds with known pIC50 results, for comparison:
O=c1cc(COCc2ccc(Cl)cc2)n(COCc2ccccc2)c(=O)[nH]1: 5.92
O=c1[nH]c(=O)n(COCc2ccccc2)c(COCc2ccccc2)c1Br: 5.10
N#Cc1ccc(COCn2c(COCc3ccccc3)cc(=O)[nH]c2=O)cc1: 5.71
O=c1cc(COCc2ccccc2)n(COCc2ccccc2)c(=O)[nH]1: 6.13
Cc1cc(C)cc(COCn2c(COCc3ccccc3)cc(=O)[nH]c2=O)c1: 6.09
O=c1[nH]c(=O)n(COCc2ccccc2)c(COCc2ccccc2)c1Cl: 5.01

According to the records, this compound Cc1ccc(COCc2cc(=O)[nH]c(=O)n2COCc2ccccc2)cc1 displays pIC50 of 6.09

// O=c1[nH]c(=O)n(COCc2ccccc2)c(COCc2ccccc2)c1I : pIC50 value = 5.43

For CC(C)CCOCn1c(COCc2ccccc2)cc(=O)[nH]c1=O the compound record lists pIC50 as 4.52

// sample O=c1cc(COCc2ccccc2)n(COCc2cc(Cl)cc(Cl)c2)c(=O)[nH]1 , its pIC50 was 6.39
